Could you please report measured ECmax (-fold induction over basal) for the items listed next?
Target: T1, GPR39 (G protein-coupled receptor 39) (Homo sapiens (Human), UniProt O43194 1-453)
T1 sequence: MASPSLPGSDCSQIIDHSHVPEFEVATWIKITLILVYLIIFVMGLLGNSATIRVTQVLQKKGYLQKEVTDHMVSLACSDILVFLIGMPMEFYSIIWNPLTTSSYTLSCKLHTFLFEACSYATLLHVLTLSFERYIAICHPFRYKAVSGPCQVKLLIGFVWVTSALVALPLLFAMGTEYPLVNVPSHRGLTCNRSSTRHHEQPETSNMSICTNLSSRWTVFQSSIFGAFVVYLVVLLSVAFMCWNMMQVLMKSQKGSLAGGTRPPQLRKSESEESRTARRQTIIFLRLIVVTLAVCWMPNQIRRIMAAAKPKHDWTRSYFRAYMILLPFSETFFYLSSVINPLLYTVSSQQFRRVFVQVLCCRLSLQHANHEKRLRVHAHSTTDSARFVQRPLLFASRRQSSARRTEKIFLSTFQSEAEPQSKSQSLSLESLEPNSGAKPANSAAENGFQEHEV
Assay: cell-based or functional assay
Square brackets hold non-standard residues; d marks the D form. Ends that are not written are not given here. * marks the point of attachment. DAMP‑5 = His whose imidazole is a 3-(2-cyclohexylethyl)-2,3-dihydro-1H-imidazol-4-yl group; Biotin = O=C1N[C@H]2[C@H](CS[C@H]2CCCCC(=O)*)N1; Bip = N[C@@H](Cc1ccc(-c2ccccc2)cc1)C(=O)O; dPhe(4-Me) = Cc1ccc(C[C@@H](N)C(=O)O)cc1; Trt = c1ccc(C(c2ccccc2)(c2ccccc2)*)cc1; Benzhydryl = c1ccc(C(c2ccccc2)*)cc1; Octanoyl = CCCCCCCC(=O)*

Example binders with recorded ECmax (-fold induction over basal):
Binder	ECmax (-fold induction over basal)
Biotin-H(Trt)K(Octanoyl)FY [HKFY-2]	15 -fold induction over basal
H(Trt)K(Octanoyl)LY [HKFY-51]	14.4 -fold induction over basal
H(Benzhydryl)K(Octanoyl)FY [HKFY-33]	20 -fold induction over basal
H(phenethyl)K(Octanoyl)FY [HKFY-19]	18 -fold induction over basal
H(DAMP‑5)K(Octanoyl)FY [HKFY-7]	16 -fold induction over basal

Record ECmax (-fold induction over basal) for all entries; do not skip any.
1. H(4‑methyltrityl)K(Octanoyl)FY [HKFY-5]
2. [dH](Trt)K(Octanoyl)[dPhe(4-Me)]Y [HKFY-31]
3. Biotin-H(Trt)K(Octanoyl)[Bip]Y [HKFY-45]
4. H(Trt)K(Octanoyl)FY [HKFY-1]

Result:
["16 -fold induction over basal", "20.9 -fold induction over basal", "21 -fold induction over basal", "20.5 -fold induction over basal"]
